Values from paper PMC1890308

target: rat TRPV1 (Rattus norvegicus, UniProt O35433); construct: expressed in transfected cells; assay: capsaicin-induced 45Ca2+-uptake in TRPV1-NIH3T3 cells; format: cell-based; conditions: 2 µM capsaicin
Sequence (O35433 whole entry): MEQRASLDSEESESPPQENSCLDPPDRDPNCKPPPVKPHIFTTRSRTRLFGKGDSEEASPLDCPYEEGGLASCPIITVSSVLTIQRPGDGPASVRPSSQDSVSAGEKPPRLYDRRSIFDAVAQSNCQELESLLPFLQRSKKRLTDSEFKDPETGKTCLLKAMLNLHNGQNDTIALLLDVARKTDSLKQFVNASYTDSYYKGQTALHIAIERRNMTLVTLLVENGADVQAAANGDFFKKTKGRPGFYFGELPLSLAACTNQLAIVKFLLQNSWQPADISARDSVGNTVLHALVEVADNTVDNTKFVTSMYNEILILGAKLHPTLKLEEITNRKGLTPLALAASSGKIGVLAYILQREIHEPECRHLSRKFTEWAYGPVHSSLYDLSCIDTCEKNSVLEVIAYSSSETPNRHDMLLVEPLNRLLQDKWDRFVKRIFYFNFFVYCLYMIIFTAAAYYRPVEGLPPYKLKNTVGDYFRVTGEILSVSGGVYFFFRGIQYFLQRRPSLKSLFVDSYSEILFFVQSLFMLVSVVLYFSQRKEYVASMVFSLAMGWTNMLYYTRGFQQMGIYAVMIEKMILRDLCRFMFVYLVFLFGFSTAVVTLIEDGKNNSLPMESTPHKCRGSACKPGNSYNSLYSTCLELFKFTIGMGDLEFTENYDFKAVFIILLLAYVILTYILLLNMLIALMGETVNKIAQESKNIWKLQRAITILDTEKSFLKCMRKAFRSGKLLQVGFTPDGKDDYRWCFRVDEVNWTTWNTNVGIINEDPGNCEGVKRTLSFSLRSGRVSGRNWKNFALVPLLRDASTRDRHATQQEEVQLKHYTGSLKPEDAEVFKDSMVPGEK
readout_kind: antagonist activity on capsaicin-induced Ca2+-uptake (in words)

compound: CN1CCN(CCCN2c3ccccc3Sc3ccc(C(F)(F)F)cc32)CC1
assay_system: rat TRPV1 (Rattus norvegicus, UniProt O35433)
value_reported: full antagonists

compound: Clc1ccc(C(c2ccc(Cl)cc2)n2cc[n+](CC(OCc3ccc(Cl)cc3Cl)c3ccc(Cl)cc3Cl)c2)cc1 (centres unmarked)
assay_system: rat TRPV1 (Rattus norvegicus, UniProt O35433)
value_reported: full antagonists

compound: CN(C)CCCN1c2ccccc2Sc2ccc(Cl)cc21
assay_system: rat TRPV1 (Rattus norvegicus, UniProt O35433)
value_reported: full antagonists

###

target: rat TRPV1 (Rattus norvegicus, UniProt O35433); construct: expressed in transfected cells; experiment: capsaicin-induced 45Ca2+-uptake in TRPV1-NIH3T3 cells; assay type: cell-based; details: 2 µM capsaicin, 10 min, 2×10^−5 M extracellular Ca2+, room temperature, read-out: IC50, inhibition of capsaicin-induced 45Ca2+-uptake
readout_kind: IC50

Enquiry: Consider the molecule NCCCCCCNS(=O)(=O)c1cccc2c(Cl)cccc12 [W-7] and give its measured IC50.
Return: ~200 µM

Enquiry: So what does the record say about IC50 for OCCN1CCN(CCCN2c3ccccc3Sc3ccc(C(F)(F)F)cc32)CC1 [fluphenazine] ?
Return: ~250 µM

Enquiry: Fill blank: measured IC50 of the molecule NCCCCNS(=O)(=O)c1ccc2c(Cl)cccc2c1 [W-13] is ____.
Return: > 300 µM
